system: HepG2 Srxn1-GFP reporter cells (+30 nM CDDO-Me); assay: Srxn1-GFP intensity median modified Z-score relative to plate median; higher = stronger NRF2 / oxidative stress reporter activation, active = hit call of the paper; details: 10 µM; exposure time: 24h
The campaign covered roughly 2,300 compounds. About 330 (14%) showed activity.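 The calls were made as follows: active = median modified Z-score above 1.96; inactive = 1.96 or below.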 Only a sample is shown.
One label from this list, please: active, inactive

QUERY: Please state the recorded outcome for this compound: COC1C(O)C(O)C(O)[C@@H](O)C1O (some centres not stated)
RESULT: inactive

QUERY: I'd appreciate the recorded outcome for CN1CCC(c2c3ccccc3cc(=O)c3sccc23)CC1 from this test.
RESULT: inactive

QUERY: In this assay, the call recorded for CCC(=O)OCC(=O)C1(OC(=O)CC)C(C)CC2C3C(Cl)C=C4CC(=O)C=CC4(C)C3C(O)CC21C (configuration not stated) was what?
RESULT: inactive

QUERY: Could you please tell me the result logged for CC1(C)C2CCC1(CS(=O)(=O)O)C(=O)C2=Cc1ccc(C=C2C(=O)C3(CS(=O)(=O)O)CCC2C3(C)C)cc1 in this assay?
RESULT: inactive

* * *

test system: HepG2 Srxn1-GFP reporter cells (+30 nM CDDO-Me); assay: Srxn1-GFP intensity median modified Z-score relative to plate median; higher = stronger NRF2 / oxidative stress reporter activation, active = hit call of the paper; settings: 10 µM; exposure time: 24h
About 330 (14%) of roughly 2,300 compounds showed activity. Not all results are given here.
We use -0.3 as the dividing line for Srxn1-GFP intensity median modified Z-score: on or above the line is True, below is False.

See these solved cases before continuing.
[
  {
    "molecule": "CC[C@H]1OC(=O)C(C)[C@@H](O[C@H]2C[C@@](C)(OC)[C@@H](O)[C@H](C)O2)[C@H](C)[C@@H](O[C@@H]2O[C@H](C)C[C@H](N(C)C)[C@H]2O)[C@](C)(O)CC(C)C(=NOCOCCOC)C(C)[C@@H](O)[C@]1(C)O (stereo partly specified) [euspeclibcmpd567]",
    "groupLabel": "True"
  },
  {
    "molecule": "CC1(C)O[C@@H]2CC3C4CC=C5CC(=O)C=C[C@]5(C)C4[C@@H](O)C[C@]3(C)[C@]2(C(=O)CO)O1 (stereo partly specified) [euspeclibcmpd859]",
    "groupLabel": "True"
  },
  {
    "molecule": "O=C(CCCl)NCCc1ccccc1 [euspeclibcmpd2364]",
    "groupLabel": "True"
  },
  {
    "molecule": "CC(=O)OC=C1CSC2C(NC(=O)CSc3ccncc3)C(=O)N2C1C(=O)O (stereo unspecified) [euspeclibcmpd2110]",
    "groupLabel": "True"
  }
]

QUERY: Exam item: decide whether the reported Srxn1-GFP intensity median modified Z-score for O=c1c(O)c(-c2ccccc2)oc2ccccc12 [euspeclibcmpd1679] is at least -0.3.
RESULT: True

* * *

system: HepG2 Srxn1-GFP reporter cells (+30 nM CDDO-Me); test: Srxn1-GFP intensity median modified Z-score relative to plate median; higher = stronger NRF2 / oxidative stress reporter activation, active = hit call of the paper; conditions: 10 µM; exposure time: 24h
The campaign covered roughly 2,300 compounds. About 330 (14%) showed activity. A selection follows.
// reported Srxn1-GFP intensity median modified Z-score for each item listed
I only need the number, thanks.

Completed entries (count: 3):
[
  {
    "compound": "Clc1cccc(Cn2cc(-c3cnn(Cc4cccc(Cl)c4)c3)cn2)c1",
    "recordedResult": 1.3
  },
  {
    "compound": "CC1=C(SC2CNC(C(=O)N(C)C)C2)C(C(=O)O)N2C(=O)[C@H]([C@@H](C)O)[C@@H]12 (some centres undefined) [euspeclibcmpd460]",
    "recordedResult": -0.758
  },
  {
    "compound": "Cc1cccc(N(C)C(=S)Oc2ccc3ccccc3c2)c1 [euspeclibcmpd299]",
    "recordedResult": 8.23
  }
]

# ---- query compound ----
O=c1c(-c2ccc(O)cc2)coc2c(C3O[C@H](CO)[C@@H](O)[C@H](O)[C@H]3O)c(O)ccc12 (some centres undefined) [euspeclibcmpd1715] tested on HepG2 Srxn1-GFP reporter cells (+30 nM CDDO-Me) gave Srxn1-GFP intensity median modified Z-score: -0.564

// provenance: the supplement of paper PMC10498489
